# Tested on: Septoria tritici (SEPTTR)
# TEST_METHOD_NOTES: microbe, parasite or virus in culture
# Format: cell-based
# SETTINGS: Zymoseptoria tritici, 168 h, read-out: Observed efficacy
Quick list: inhibition of growth at 0.063 ppm per entry.

MOLECULE: CO/C=C(/C(=O)OC)c1cccc(C)c1CO/N=C(\COC)c1ccc(F)cc1 [I.4]
inhibition of growth at 0.063 ppm, %: 16
--
MOLECULE: CO/C=C(/C(=O)OC)c1cccc(C)c1CO/N=C(\COC)c1c(F)cc(F)cc1F [I.10]
inhibition of growth at 0.063 ppm, %: 0
--
MOLECULE: CO/C=C(/C(=O)OC)c1cccc(C)c1CO/N=C(\COC)c1ccccc1 [I.3]
inhibition of growth at 0.063 ppm, %: 21
--
MOLECULE: N#Cc1c[nH]cc1-c1cccc2c1OC(F)(F)O2 [fludioxonil, reference compound]
inhibition of growth at 0.063 ppm, %: 5
--
MOLECULE: CC(Cc1ccc(C(C)(C)C)cc1)CN1C[C@@H](C)O[C@@H](C)C1 (stereo partly shown) [fenpropimorph, reference compound]
inhibition of growth at 0.063 ppm, %: 0
--
MOLECULE: CO/C=C(/C(=O)OC)c1cccc(Cl)c1CO/N=C(\COC)c1ccccc1 [I.1]
inhibition of growth at 0.063 ppm, %: 0
--
MOLECULE: OC(Cc1ccccc1Cl)(Cn1nc[nH]c1=S)C1(Cl)CC1 (stereo not shown) [prothioconazole, reference compound]
inhibition of growth at 0.063 ppm, %: 5
--
MOLECULE: CO/C=C(/C(=O)OC)c1cccc(Cl)c1CO/N=C(\COC)c1c(F)cc(F)cc1F [I.9]
inhibition of growth at 0.063 ppm, %: 0
--
MOLECULE: CO/C=C(/C(=O)OC)c1cccc(C)c1CO/N=C(\COC)c1ccc(F)cc1F [I.7]
inhibition of growth at 0.063 ppm, %: 0
--
MOLECULE: CO/C=C(/C(=O)OC)c1cccc(Br)c1CO/N=C(\COC)c1c(F)cc(F)cc1F [I.11]
inhibition of growth at 0.063 ppm, %: 0

* * *

# Tested on: Phakopsora pachyrhizi
# TEST_METHOD_NOTES: Green house use example 13: curative control of soybean rust on soybeans (PHAKPA F129L K4)
# Assay type: in vivo
# SETTINGS: Trial 1, single compound, 4 ppm
Quick list: Observed efficacy per entry.

COMPOUND: O=C(Nc1ccccc1F)c1ccc(-c2noc(C(F)(F)F)n2)cc1 [flufenoxadiazam, reference compound]
Observed efficacy: 31

COMPOUND: CO/C=C(/C(=O)OC)c1cccc(C)c1CO/N=C(\COC)c1ccc(F)cc1F
Observed efficacy: 41

COMPOUND: CO/C=C(/C(=O)OC)c1cccc(Cl)c1CO/N=C(\COC)c1c(F)cc(F)cc1F
Observed efficacy: 12

COMPOUND: CC(Cc1ccc(C(C)(C)C)cc1)CN1C[C@@H](C)O[C@@H](C)C1 (stereo partly drawn) [fenpropimorph, reference compound]
Observed efficacy: 8

COMPOUND: CO/C=C(/C(=O)OC)c1cccc(Cl)c1CO/N=C(\COC)c1ccccc1
Observed efficacy: 37

COMPOUND: CO/C=C(/C(=O)OC)c1cccc(Br)c1CO/N=C(\COC)c1c(F)cc(F)cc1F
Observed efficacy: 12

* * *

# System: Monilinia sp. (MONISP)
# TEST_METHOD_NOTES: microbe, parasite or virus in culture
# Assay type: cell-based
# SETTINGS: Monilinia, 168 h, read-out: Observed efficacy
Label class 1 for high-side inhibition of growth at 0.063 ppm (at or above 40%) and class 0 for low-side inhibition of growth at 0.063 ppm (below it).

GIVEN_SMILES: CO/C=C(/C(=O)OC)c1cccc(Br)c1CO/N=C(\COC)c1ccccc1
ANSWER_LABEL: class 0

GIVEN_SMILES: CO/C=C(/C(=O)OC)c1cccc(C)c1CO/N=C(\COC)c1ccccc1
ANSWER_LABEL: class 1

GIVEN_SMILES: CO/C=C(/C(=O)OC)c1cccc(Cl)c1CO/N=C(\COC)c1c(F)cc(F)cc1F
ANSWER_LABEL: class 1

GIVEN_SMILES: CO/C=C(/C(=O)OC)c1cccc(C)c1CO/N=C(\COC)c1ccc(F)cc1F
ANSWER_LABEL: class 1

GIVEN_SMILES: CO/C=C(/C(=O)OC)c1cccc(Cl)c1CO/N=C(\COC)c1ccc(F)cc1F
ANSWER_LABEL: class 0

* * *

Quick list: inhibition of growth at 0.25 ppm per entry.
# System: Alternaria solani (ALTESO)
# TEST_METHOD_NOTES: microbe, parasite or virus in culture
# Format: cell-based
# SETTINGS: Alternaria solani, 168 h, read-out: Observed efficacy
VALUE_TYPE: inhibition of growth at 0.25 ppm (%)

COMPOUND: CO/C=C(/C(=O)OC)c1cccc(Br)c1CO/N=C(\COC)c1c(F)cc(F)cc1F
TARGET_SYSTEM: Alternaria solani (ALTESO)
VALUE_TYPE: inhibition of growth at 0.25 ppm
ASSAY_RESULT: 0
//
COMPOUND: CO/C=C(/C(=O)OC)c1cccc(Cl)c1CO/N=C(\COC)c1ccc(F)cc1F
TARGET_SYSTEM: Alternaria solani (ALTESO)
VALUE_TYPE: inhibition of growth at 0.25 ppm
ASSAY_RESULT: 34
//
COMPOUND: CC(Cc1ccc(C(C)(C)C)cc1)CN1C[C@@H](C)O[C@@H](C)C1 (stereo partly drawn) [fenpropimorph, reference compound]
TARGET_SYSTEM: Alternaria solani (ALTESO)
VALUE_TYPE: inhibition of growth at 0.25 ppm
ASSAY_RESULT: 18
//
COMPOUND: CO/C=C(/C(=O)OC)c1cccc(C)c1CO/N=C(\COC)c1c(F)cc(F)cc1F
TARGET_SYSTEM: Alternaria solani (ALTESO)
VALUE_TYPE: inhibition of growth at 0.25 ppm
ASSAY_RESULT: 0
//
COMPOUND: OC(Cc1ccccc1Cl)(Cn1nc[nH]c1=S)C1(Cl)CC1 (stereo not drawn) [prothioconazole, reference compound]
TARGET_SYSTEM: Alternaria solani (ALTESO)
VALUE_TYPE: inhibition of growth at 0.25 ppm
ASSAY_RESULT: 10
//
COMPOUND: CO/C=C(/C(=O)OC)c1cccc(F)c1CO/N=C(\COC)c1c(F)cc(F)cc1F
TARGET_SYSTEM: Alternaria solani (ALTESO)
VALUE_TYPE: inhibition of growth at 0.25 ppm
ASSAY_RESULT: 4

* * *

# Test system: Alternaria solani (ALTESO)
# TEST_METHOD_NOTES: microbe, parasite or virus in culture
# Format: cell-based
# SETTINGS: Alternaria solani, 168 h, read-out: Observed efficacy
Label t for high-side inhibition of growth at 0.016 ppm (at or above 2%) and f for low-side inhibition of growth at 0.016 ppm (below it).

COMPOUND: CO/C=C(/C(=O)OC)c1cccc(C)c1CO/N=C(\COC)c1c(F)cc(F)cc1F
ANSWER_LABEL: f

COMPOUND: CO/C=C(/C(=O)OC)c1cccc(C)c1CO/N=C(\COC)c1ccccc1
ANSWER_LABEL: t

COMPOUND: CO/C=C(/C(=O)OC)c1cccc(Cl)c1CO/N=C(\COC)c1ccc(F)cc1F
ANSWER_LABEL: t

COMPOUND: CO/C=C(/C(=O)OC)c1cccc(Cl)c1CO/N=C(\COC)c1ccccc1
ANSWER_LABEL: t

COMPOUND: N#Cc1c[nH]cc1-c1cccc2c1OC(F)(F)O2 [fludioxonil, reference compound]
ANSWER_LABEL: t

* * *

Quick list: inhibition of growth at 1 ppm per entry.
# System: Pyricularia oryzae (PYRIOR)
# TEST_METHOD_NOTES: microbe, parasite or virus in culture
# Assay type: cell-based
# SETTINGS: Pyricularia oryzae, 168 h, read-out: Observed efficacy

COMPOUND: CO/C=C(/C(=O)OC)c1cccc(F)c1CO/N=C(\COC)c1c(F)cc(F)cc1F [I.8]
inhibition of growth at 1 ppm, %: 18
//
COMPOUND: CO/C=C(/C(=O)OC)c1cccc(Cl)c1CO/N=C(\COC)c1ccc(F)cc1F [I.6]
inhibition of growth at 1 ppm, %: 24
//
COMPOUND: CO/C=C(/C(=O)OC)c1cccc(Br)c1CO/N=C(\COC)c1ccccc1 [I.2]
inhibition of growth at 1 ppm, %: 31
//
COMPOUND: OC(Cc1ccccc1Cl)(Cn1nc[nH]c1=S)C1(Cl)CC1 (stereo not shown) [prothioconazole, reference compound]
inhibition of growth at 1 ppm, %: 12

* * *

# System: Sclerotinia sclerotiorum (SCLESC)
# TEST_METHOD_NOTES: microbe, parasite or virus in culture
# Assay type: cell-based
# SETTINGS: Sclerotinia sclerotiorum, 168 h, read-out: Observed efficacy
Quick list: inhibition of growth at 0.016 ppm per entry.

GIVEN_SMILES: CO/C=C(/C(=O)OC)c1cccc(C)c1CO/N=C(\COC)c1c(F)cc(F)cc1F
TARGET_SYSTEM: Sclerotinia sclerotiorum (SCLESC)
inhibition of growth at 0.016 ppm: 0%
--
GIVEN_SMILES: CO/C=C(/C(=O)OC)c1cccc(C)c1CO/N=C(\COC)c1ccc(F)cc1F
TARGET_SYSTEM: Sclerotinia sclerotiorum (SCLESC)
inhibition of growth at 0.016 ppm: 3%
--
GIVEN_SMILES: CO/C=C(/C(=O)OC)c1cccc(C)c1CO/N=C(\COC)c1ccccc1
TARGET_SYSTEM: Sclerotinia sclerotiorum (SCLESC)
inhibition of growth at 0.016 ppm: 0%
--
GIVEN_SMILES: CO/C=C(/C(=O)OC)c1cccc(Cl)c1CO/N=C(\COC)c1ccc(F)cc1F
TARGET_SYSTEM: Sclerotinia sclerotiorum (SCLESC)
inhibition of growth at 0.016 ppm: 4%
--
GIVEN_SMILES: CO/C=C(/C(=O)OC)c1cccc(C)c1CO/N=C(\COC)c1ccc(F)cc1
TARGET_SYSTEM: Sclerotinia sclerotiorum (SCLESC)
inhibition of growth at 0.016 ppm: 0%
